Data provenance is PubChem BioAssay (NCI).

# System: KM12 colon
# protocol-details: NCI tumour cell line growth inhibition, 48 h; in the data active = GI50 below about 0.43 µM; inactive = the rest
The categories you may choose from are y for active, n for inactive

Exercise: Name the outcome recorded for CCC[CH2][Sn]1([CH2]CCC)[O]N=C(c2ccccc2)C(c2ccccc2)[O]1 (stereo not drawn) in the assay.
Solution: n

Exercise: Just curious, what result did `Clc1nc2ccccc2nc1CI` get here?
Solution: n

Exercise: GET /call?item= `COc1ccc(/C=C(/C(=O)N2CCN(c3ccccc3)CC2)c2cc(OC)c(OC)c(OC)c2)cc1O` returns the recorded outcome of this test.
Solution: y

Exercise: Any idea what this test logged for `CC(C)c1ccc2c(c1)CC[C@@H]1[C@@](C)(C(=O)O)CCC[C@]21C` ?
Solution: n

Exercise: # fetch the recorded call for `CCCCCCCCCCCCCC1=NC(C)(C)CN1C(C)C` here
Solution: n

Exercise: What did the test return for Cn1nc(N)c2cc([C@@H]3Nc4ccc5[nH]ncc5c4[C@H]4C5CCC(C5)[C@@H]34)ccc21 (stereo partly drawn) ?
Solution: n

Exercise: Tell me the assay call for CC(C)=CCNc1ncnc2c1ncn2C1OC(CO)C(O)C1O (stereo not drawn) please.
Solution: n

Exercise: Could you check what this test reported for COc1ccc(C(C)=O)cc1N1C(=O)C2C(C1=O)C1(c3ccccc3)C(=O)C2(c2ccccc2)C(c2ccc(C)cc2)=C1c1ccc(C)cc1 (stereo not drawn) ?
Solution: n

====

# Tested on: 786-0 renal
# protocol-details: NCI tumour cell line growth inhibition, 48 h
result-type: TGI

Noted for COc1ccc(C(C)=O)cc1N1C(=O)C2C(C1=O)C1(c3ccccc3)C(=O)C2(c2ccccc2)C(c2ccc(C)cc2)=C1c1ccc(C)cc1 (stereo not drawn) : its TGI reads > 100 µM

get_value(item= CC1=CC(C)C/C=C/C2C3OC3(C)C(C)C3C(Cc4c[nH]c5ccccc45)NC(=O)C23C(=O)C=CC(=O)C1O (stereo not drawn) , readout=TGI) returns 10.8 µM

// sample `Nc1ccc(Oc2ccc(C34CC5CC6C3CC3CC4C(C5)C6(c4ccc(Oc5ccc(N)cc5)cc4)C3)cc2)cc1` , its TGI was 45.2 µM

Input `O=C1NC(=O)C(c2cnc3ccccn23)=C1c1cn2c3c(cc(F)cc13)CN(C(=O)N1CCCCC1)CC2` . Output TGI: > 59.4 µM

Form field TGI, entry `COc1cnc2c(c1)C(=O)c1c-2n(CCCNC(C)C)c(=O)c2cc(Cl)ccc12` : 1.98 µM

response.value for `N#Cc1nc2ccccc2nc1N1CCN(c2ccc([N+](=O)[O-])cc2)CC1` (field: TGI) = > 100 µM

For reference, reported TGI for OCC1OC(c2cccc3cc(O)c(O)cc23)CC1O (stereo not drawn) stands at > 100 µM

Lookup result for COCC1OC(Sc2ccccc2)C(O)C(OC)C1OC (stereo not drawn) ; measured TGI: > 100 µM

Quick note, TGI for O=c1cnn(C2OC(C(O)CO)C(O)C2O)c(=O)[nH]1 (stereo not drawn) landed at > 100 µM

TGI reading for `c1nc(OCC2CCCCC2)c2[nH]cnc2n1` : > 100 µM

Measured TGI, N#CC(N)(C(=O)CCC(=O)Nc1cccc(Cl)c1)c1ccc(Cl)cc1 (stereo not drawn) : > 100 µM

Measured TGI, Nc1ccc2c(c1)N(C(=O)c1cc3cc(NC(=O)c4cc5ccccc5o4)ccc3[nH]1)CC2CCl (stereo not drawn) : > 37.9 µM

For this molecule ( `S=C1NC2(CCCCCC2)NN1c1ccccc1` ), measured TGI is > 100 µM

====

# System: HT29 colon
# protocol-details: NCI tumour cell line growth inhibition, 48 h; in the data active = GI50 below about 0.43 µM; inactive = the rest
Use one of these outcomes when replying: 1 = active, -1 = inactive

Exercise: Per the assay record, what outcome was assigned to `C=C1C(=O)O[C@@H]2C[C@@H]1CC/C(C)=C/CC/C(C)=C/CC[C@@]2(C)O` ?
Solution: -1

Exercise: Lab log entry: `C=CCCCCC/C=C\[C@H](O)C#CC#C/C=C/CO` — outcome as called in the assay?
Solution: -1

Exercise: What was the test verdict on `CCCCCCNC(=O)c1cc(NCc2cc(O)ccc2O)ccc1O` ?
Solution: -1

Exercise: Which outcome was assigned to `Cn1cc(CO)c2c1C(=O)C=C(N1CC1)C2=O` in this test?
Solution: 1

Exercise: Returns: the outcome recorded for `N#CC(=C1C=CC(=NO)C=C1)c1ccccc1` in this assay.
Solution: -1

Exercise: Recorded test call requested for `Cc1cc(I)cc(CN(C)CCCN2CCCCCCC2)c1O`
Solution: -1

Exercise: Any idea what this test logged for CCC[CH2][Sn]1([CH2]CCC)[O]N=C(c2ccccc2)C(c2ccccc2)[O]1 (stereo not given) ?
Solution: -1

Exercise: What did this assay record as the result for `OC[C@H]1C[C@](O)(c2ccc(Cl)cc2)[C@@H](c2ccc(Cl)cc2)O1` ?
Solution: -1

Exercise: Hello, I am checking results. What call was entered for `O=C(CNc1ccc(Cl)cc1)Nc1ccc(-c2nc3ccccc3s2)cc1` ?
Solution: -1

Exercise: For this compound, state the assay outcome: CC(C)=CCNc1ncnc2c1ncn2C1OC(CO)C(O)C1O (stereo not given)
Solution: -1

====

# Tested on: SNB-75 CNS
# protocol-details: NCI tumour cell line growth inhibition, 48 h
result-type: TGI (µM)
State the answer as a number, implicitly in µM.

Recorded TGI (compound `O=[N+]([O-])c1ccc(C2=Nn3cnnc3SC2)o1` ): 51.7

The value of TGI measured for the compound `Cc1cc([N+](=O)[O-])ccc1Nc1cccc(Cl)c1C` turned out to be 52.7

The compound listed as CCCCCCCCCCCCOC1C(C(COC2OC(C3COC(C)(C)O3)C3OC(C)(C)OC23)NC(=O)Nc2ccc(C(=O)O)cc2)OC2OC(C)(C)OC21 (stereo not given) shows TGI equal to 10.8

Quick note, TGI for O=C(O)CC1NC(/C(=C/c2ccccc2)NC(=O)c2ccccc2)OC1=O (stereo not given) landed at 74

Lab note: `O=C(CNc1ccc(Cl)cc1)Nc1ccc(-c2nc3ccccc3s2)cc1` gave TGI of 14.8

For this compound ( `CCCCCCCCCCCCCC1=NC(C)(C)CN1C(C)C` ), measured TGI is 3

Field TGI (entry CC1(c2cccs2)CC(c2cccs2)=C(C#N)C(=C(C#N)C#N)N1 (stereo not given) ) reads 33.2

Value of TGI reported for the compound `CCCCCCNC(=O)c1cc(NCc2cc(O)ccc2O)ccc1O` is 21.1

Entry `O=c1cnn(C/C=C/CBr)c(=O)[nH]1` — recorded TGI = 33.4

Reported TGI of `O=C1/C(=C/c2ccc(Br)cc2)COc2ccc(O)c(O)c21` : 3.01

====

# Test system: OVCAR-5 ovarian
# protocol-details: NCI tumour cell line growth inhibition, 48 h
For each of the compounds below, state its TGI.

Summary: `CCCN=C(N)NC#N` , OVCAR-5 ovarian, TGI = > 100 µM

Field TGI (system: OVCAR-5 ovarian) for entry COc1ccc(C2C(Cl)C(=O)N2n2cnc3ccccc3c2=O)cc1 (stereo not drawn) = > 100 µM

The compound `CS(=O)(=O)Nc1ccc2c(c1)oc(=O)c1ccccc12` , tested on OVCAR-5 ovarian, showed TGI of > 100 µM

====

Exercise: state measured TGI for each of the molecules provided.
# Test system: HCT-116 colon
# protocol-details: NCI tumour cell line growth inhibition, 48 h

HCT-116 colon TGI of `O=Cc1cn(CCCCCCCCCCCCn2cc(C=O)c3ccccc32)c2ccccc12` is > 100 µM

HCT-116 colon assay, molecule `[N-]=[N+]=NC12CC3C4CC5CC3C(C1)C(C5)C4C2` , recorded TGI = > 100 µM

Considering `O=c1[nH]c2c(nc1NC13CC4CC(CC(C4)C1)C3)c(=O)oc1ccccc12` , its TGI with HCT-116 colon was recorded as > 100 µM

Observed TGI, HCT-116 colon, `CC(C)(C)NC(NC(C)(C)C)=C(/C=C(/Cl)[N+](=O)[O-])[N+](=O)[O-]` : > 100 µM

====

# System: MDA-MB-435
# protocol-details: NCI tumour cell line growth inhibition, 48 h
result-type: TGI (µM)
API: value field is a number in µM; no unit string.

Record `CC(C)c1ccc2c(c1)CC[C@@H]1[C@@](C)(C(=O)O)CCC[C@]21C` . Reported TGI: 29.5

compound `Cc1cc(I)cc(CN(C)CCCN2CCCCCCC2)c1O` , TGI observed: 30.1

====

# Tested on: M14 melanoma
# protocol-details: NCI tumour cell line growth inhibition, 48 h
result-type: TGI

// field: TGI; key: `Cc1ccc(Cc2c(=O)[nH]nc3ccccc23)cc1` ; value = > 100 µM

// TGI lookup, compound = `CN(C)N=Nc1ccc(NC=O)cc1` , result: > 100 µM

The compound identified as Oc1c(C2=NNC(c3ccc(Cl)cc3Cl)C2)ccc2ccccc12 (configuration not stated) registered its TGI at > 100 µM

// TGI value for Cn1c2c(c3ccccc31)C1CCCCCCC1C1C(=O)OC(=O)C21 (configuration not stated) : > 100 µM

Summary for this compound, `Cc1c([N+](=O)[O-])ccc2c(NCCCN(C)C)ccnc12` : TGI is 29.9 µM

Value of measured TGI for the entry `N#Cc1nc2ccccc2nc1N1CCN(c2ccc([N+](=O)[O-])cc2)CC1` : > 100 µM

Value of measured TGI for the entry O=C(O)CC1NC(/C(=C/c2ccccc2)NC(=O)c2ccccc2)OC1=O (configuration not stated) : 35.2 µM
